test system: CHIKV; assay type: cell-based, chikungunya virus
experimental readout: Score_si2
One number for each entry.

Example cases with answers are listed next.
s34679 (GGAAAGAAGGGAATGAGTT; chemistry not given here) :: 1.1
Hs_AP3S2_1 (TGGGATGGTGTTGGAAACAAA; chemistry not given here) :: 1.11
Hs_INTS8_2 (sense CTGGGAATTAAAGACAATTTA; chemistry not given here) :: 2.65
s3163 (CTATCTTGGGTTTACCGTA; chemistry not given here) :: 1.54
Hs_RRBP1_1 (sense CACGTAGAGGATGGTGACATA; chemistry not given here) :: 1.82

Hello, I would appreciate it if you could give Score_si2 for each entry below.
1. Hs_BOP1_2 (CTGCCATGGCATGGTGTACAA; chemistry not given here)
2. Hs_PRSS15_2 (sense CAGCCTTATGTCGGCGTCTTT; chemistry not given here)
3. Hs_E2F3_5 (TACAGTATTTGCGTTACTTTA; chemistry not given here) [reference compound]
4. Hs_MGC21830_2 (CAGCTGGGCGGTGCTGTTCGA; chemistry not given here) [reference compound]

2.23
1.66
-1.78
-1.02

Hello, I would appreciate it if you could give Score_si2 for each entry below.
1. s31191 (GATAATCAGTTCAACTAAA; chemistry not given here)
2. Hs_ZBTB24_1 (CTCCAGGAAATTAAATATTTA; chemistry not given here)
3. Hs_FLT4_8 (sense CACCGTGTGGGCTGAGTTTAA; chemistry not given here)
4. s14705 (sense GCAGTTGAATTATCACAGT; chemistry not given here)

1.84
1.74
1.07
1.97

---

Exercise: for every item that follows, state its recorded Score_si3.
system: CHIKV; format: cell-based, chikungunya virus
Give bare numbers.

Example cases with answers are listed next.
Hs_BCHE_3 (CAGGAGTGAGTGAGTTTGGAA; chemistry not given here) :: 0.6
s16318 (AGGCATCTTTGAGACGATT; chemistry not given here) :: 0.61

Now consider the entry below.
Tell me the measured Score_si3 of s38816 (GAACATCTGGATCAAGAGA; chemistry not given here) , please.
1.02

---

tested on: CHIKV; type: cell-based, chikungunya virus
Threshold 0.7. Score_si4 below it: 1. Score_si4 at it or above: 0.

Hs_TRAF2_5 (CACGAGGGCATATATGAAGAA; chemistry not given here) [reference compound] :: 1
s8290 (sense GGTGCTAACCGGATAGTAT; chemistry not given here) :: 0
s21626 (sense GGCAGTTGATTGTGGATGA; chemistry not given here) :: 1
Hs_CLK1_4 (sense CCGTATTTCCAACACACGATA; chemistry not given here) :: 0
Hs_RAD51L3_4 (sense CCCAGTAACGCCTGCTGTTTA; chemistry not given here) :: 1
s26230 (sense CGGGACCAATTACCGCAAA; chemistry not given here) :: 1
s33581 (GTACTTATATGAACGTATT; chemistry not given here) :: 0
s12452 (sense GGACCAAGATGATCAGAAA; chemistry not given here) :: 1
s19989 (sense CTATGCTACCCTCTACTTT; chemistry not given here) :: 1
Hs_EZH2_7 (AACCATGTTTACAACTATCAA; chemistry not given here) :: 0

Threshold test, Score_si4 < 0.7: s31181 (CCACTCGTTTTGACTATTA; chemistry not given here)
0

Threshold test, Score_si4 < 0.7: Hs_RRBP1_3 (sense CTGGCTGCAGGTGAAAGGAAA; chemistry not given here)
0

Threshold test, Score_si4 < 0.7: Hs_NRD1_3 (CAAGCAATACCGATACATCAA; chemistry not given here)
0

Origin of the recorded values: paper PMC4865845
